# System: SF-295 CNS
# Assay remarks: NCI-60 one-dose screen, 48 h
# Assay conditions: 10 µM unless noted
This is part of a sample that, as a whole, favours compounds with a hit. Of some 83,000 tested, about 20% had one in any assay. Calls of active or inactive are those of the source. Rule for the calls: active = growth percent below 10; inactive = the rest.
Possible outcomes: true for active, false for inactive

>>> print(df.to_string())
                                   compound  group_label
0      CCOc1ccc(NC(=O)c2ccoc2COc2ccccc2)cc1        false
1  COC(=O)CCCCCn1c2ccccc2c2c3c(c4c5ccccc5[nH]c4c21)C(=O)N(O)C3=O        false
2  CC(=O)O[C@H]1CC[C@]2(C)[C@H]3CC=C4[C@@H]5[C@H](C)[C@@H](C)CC[C@]5(C(=O)NCCNCCNCCN)CC[C@@]4(C)[C@]3(C)CC[C@H]2C1(C)C        false
3            O=C(O)c1cccc2c1-c1ccc(Cl)cc1C2        false
4    Fc1cccc(-c2[nH]nc3nc(Nc4cccnc4)sc23)c1        false
5  CN(C)c1cccc2[nH]c(-c3[nH]ncc3Nc3ccnc(N)n3)nc12         true
6  COc1cccc(-c2nn(-c3ccccc3)cc2-c2ccnc(NCCNS(=O)(=O)c3cccc(F)c3)c2)c1        false
7  N#CC1=C(N)Oc2ccc3ccccc3c2C1c1ccccc1Cl (centres undefined)        false
8  CC1(C)CC[C@]2(C(=O)Nc3ccccn3)CC[C@]3(C)C(=CC[C@@H]4[C@@]5(C)C/C(=C/c6ccncc6)C(=O)C(C)(C)[C@@H]5CC[C@]43C)[C@@H]2C1        false

###

# System: ACHN renal
# Assay remarks: NCI-60 one-dose screen, 48 h (100 = growth as untreated, 0 = no growth, -100 = all killed)
# Assay conditions: 10 µM unless noted
The panel holds about 83,000 compounds, 20% with a hit somewhere; the sample as a whole holds those more often.
Below, each entry is listed with its recorded growth.
Readout type: growth (%)

Compound	Unit info	Measured value
Cc1cc2nc3c4cc(Cl)ccc4n(CCN(C)C)c3nc2cc1C	%	-10
Cn1c(=O)c2c(nc(N3CCCC3)n2C)n(C)c1=O	%	106
COC(=O)c1cc(=O)nc(N/N=C/c2ccc(C)cc2)s1	%	107
NC1=C(C/C(N)=N\O)C(c2ccccc2Cl)c2c(ccc3ccccc23)O1 (centres undefined)	%	83
C=C(C)[C@@H]1CC[C@]2(C(=O)N3CCN(C)CC3)CC[C@]3(C)[C@H](CC[C@@H]4[C@@]5(C)C/C(=C/c6ccc(C(F)(F)F)cc6)C(=O)C(C)(C)[C@@H]5CC[C@]43C)[C@@H]12	%	96.4
O=C1/C(=C\c2ccc(Br)o2)SC(=S)N1CCc1ccc(O)cc1	%	49.8
Nc1c(C(=O)Nc2c(Cl)cccc2Cl)sc2nc3c(cc12)CCCC3	%	87.7
NC(=O)NCC1CCCCC1	%	106
COc1ccc(NC(=S)N/N=C/c2ccccc2SSCCC(=O)OC[C@H]2O[C@H](O)[C@H](O)[C@@H](O)[C@@H]2O)cc1	%	101

###

# Test system: 786-0 renal
# Assay remarks: NCI-60 one-dose screen, 48 h (100 = growth as untreated, 0 = no growth, -100 = all killed)
# Assay conditions: 10 µM unless noted
The panel holds about 83,000 compounds, 20% with a hit somewhere; the sample as a whole holds those more often.
Below, each entry is listed with its recorded growth.
Readout type: growth (%)

Compound	Measured value
N=C(N)c1ccc(-c2ccc(-c3cc(F)cc(F)c3)o2)nc1	95.6
COc1cc(/C=C2\C(=O)N(CC(O)COc3cc(O)c4c(=O)cc(-c5ccccc5)oc4c3)c3ccccc32)cc(OC)c1O (centres undefined)	98
COC(=O)[C@]12CC[C@@H](C)[C@H](C)[C@@H]1C1=CC[C@@H]3[C@@]4(C)C[C@@H](OC(C)=O)[C@H](OC(C)=O)[C@@](C)(COC(C)=O)[C@@H]4[C@H](O)C[C@@]3(C)[C@]1(C)CC2	15
N#CC1=C(N)Oc2c(sc3c(F)cccc23)C1c1ccc(Cl)cc1 (centres undefined)	21.1
